# Tested on: Triticum aestivum variety “Monopol”
# Assay comment: Post-emergence test, selectivity
# Type: in vivo
# Experimental conditions: 0.12 kg/ha, 2–4 weeks after treatment, rating 0-100 (100=death), Table 6
Measure: TRZAWM rating (Selectivity)
No unit in the answer, please; the number alone is enough.

Lookup: Find the recorded TRZAWM rating (Selectivity) belonging to Cc1nc(-c2ccc(C(F)(F)F)cc2)nc(Oc2cccc(C(F)(F)F)c2)c1C [REF-2] and report it.
Found: 8

Lookup: Find the recorded TRZAWM rating (Selectivity) belonging to CCc1cc(Oc2cccc(C(F)(F)F)c2)nc(-c2ccc(C(F)(F)F)cc2)n1 [REF-3] and report it.
Found: 22

Lookup: Find the recorded TRZAWM rating (Selectivity) belonging to FC(F)(F)c1ccc(-c2nccc(Oc3cccc(C(F)(F)F)c3)n2)cc1 [TTP] and report it.
Found: 8

Lookup: Find the recorded TRZAWM rating (Selectivity) belonging to Cc1cnc(-c2ccc(C(F)(F)F)cc2)nc1Oc1cccc(C(F)(F)F)c1 [REF-1] and report it.
Found: 30

----------
# Test system: wheat
# Assay comment: Pre-emergence test, tolerance in wheat
# Type: in vivo
# Experimental conditions: in vivo
Measure: maximum tolerated dose in wheat / dose at which sufficiently selective in wheat (g/ha)
Number only, in g/ha; omit the unit.

Lookup: Find the recorded maximum tolerated dose in wheat / dose at which sufficiently selective in wheat belonging to CCc1cc(Oc2cccc(C(F)(F)F)c2)nc(-c2ccc(C(F)(F)F)cc2)n1 [REF-3] and report it.
Found: 60

Lookup: Find the recorded maximum tolerated dose in wheat / dose at which sufficiently selective in wheat belonging to Cc1nc(-c2ccc(C(F)(F)F)cc2)nc(Oc2ccnc(Cl)c2)c1C [REF-5] and report it.
Found: 240

Lookup: Find the recorded maximum tolerated dose in wheat / dose at which sufficiently selective in wheat belonging to Cc1cnc(-c2ccc(C(F)(F)F)cc2)nc1Oc1ccnc(Cl)c1 [REF-4] and report it.
Found: 60

Lookup: Find the recorded maximum tolerated dose in wheat / dose at which sufficiently selective in wheat belonging to CSc1cc(Oc2ccnc(Cl)c2)nc(-c2ccc(C(F)(F)F)cc2)n1 [REF-7] and report it.
Found: 240

Lookup: Find the recorded maximum tolerated dose in wheat / dose at which sufficiently selective in wheat belonging to Cc1cc(Oc2ccnc(Cl)c2)nc(-c2ccc(C(F)(F)F)cc2)n1 [REF-6] and report it.
Found: 120

Lookup: Find the recorded maximum tolerated dose in wheat / dose at which sufficiently selective in wheat belonging to COc1cnc(-c2ccc(C(F)(F)F)cc2)nc1Oc1ccnc(Cl)c1 [REF-8] and report it.
Found: 120

----------
# Test system: Triticum aestivum variety “Monopol”
# Assay comment: Pre-emergence test, selectivity
# Assay type: in vivo
# Experimental conditions: 0.120 kg/ha, 3 weeks after treatment, rating 0-100 (100=death), Table 4
Task for the reader: assign each of the following compounds its reported TRZAWM rating (Selectivity).
No unit in the answer, please; the number alone is enough.

Lookup: Find the recorded TRZAWM rating (Selectivity) belonging to CSc1cc(Oc2ccnc(Cl)c2)nc(-c2ccc(C(F)(F)F)cc2)n1 and report it.
Found: 5

Lookup: Find the recorded TRZAWM rating (Selectivity) belonging to Cc1cnc(-c2ccc(C(F)(F)F)cc2)nc1Oc1ccnc(Cl)c1 and report it.
Found: 22

Lookup: Find the recorded TRZAWM rating (Selectivity) belonging to Cc1cc(Oc2ccnc(Cl)c2)nc(-c2ccc(C(F)(F)F)cc2)n1 and report it.
Found: 15

Lookup: Find the recorded TRZAWM rating (Selectivity) belonging to FC(F)(F)c1ccc(-c2nccc(Oc3ccnc(Cl)c3)n2)cc1 and report it.
Found: 2

Lookup: Find the recorded TRZAWM rating (Selectivity) belonging to COc1cnc(-c2ccc(C(F)(F)F)cc2)nc1Oc1ccnc(Cl)c1 and report it.
Found: 15

Lookup: Find the recorded TRZAWM rating (Selectivity) belonging to Cc1nc(-c2ccc(C(F)(F)F)cc2)nc(Oc2ccnc(Cl)c2)c1C and report it.
Found: 1

----------
# Test system: Lolium perenne
# Assay comment: Pre-emergence test, weed control
# Format: in vivo
# Experimental conditions: 0.240 kg/ha, 3 weeks after treatment, rating 0-100 (100=death), Table 3
# Method: The pre-emergence tests involve spraying a liquid formulation of the compound onto the soil in which the seeds of the plant species mentioned above has recently been sown. The soil used in the tests is a prepared horticultural loam. […] In these tests untreated sown soil is used as control. The herbicidal effects of the test compounds are assessed visually three weeks after spraying the soil and are recorded an a 0 to 100 scale. […]
Task for the reader: assign each of the following compounds its reported LOLPE weed control rating.

Lookup: Find the recorded LOLPE weed control rating belonging to Cc1cnc(-c2ccc(C(F)(F)F)cc2)nc1Oc1ccnc(Cl)c1 and report it.
Found: 100

Lookup: Find the recorded LOLPE weed control rating belonging to Cc1cc(Oc2ccnc(Cl)c2)nc(-c2ccc(C(F)(F)F)cc2)n1 and report it.
Found: 100

Lookup: Find the recorded LOLPE weed control rating belonging to CSc1cc(Oc2ccnc(Cl)c2)nc(-c2ccc(C(F)(F)F)cc2)n1 and report it.
Found: 99

Lookup: Find the recorded LOLPE weed control rating belonging to COc1cnc(-c2ccc(C(F)(F)F)cc2)nc1Oc1ccnc(Cl)c1 and report it.
Found: 99

Lookup: Find the recorded LOLPE weed control rating belonging to FC(F)(F)c1ccc(-c2nccc(Oc3ccnc(Cl)c3)n2)cc1 and report it.
Found: 100

Lookup: Find the recorded LOLPE weed control rating belonging to Cc1nc(-c2ccc(C(F)(F)F)cc2)nc(Oc2ccnc(Cl)c2)c1C and report it.
Found: 99

----------
# Tested on: Triticum aestivum variety “Kanzler”
# Assay comment: Pre-emergence test, selectivity
# Type: in vivo
# Experimental conditions: 0.240 kg/ha, 3 weeks after treatment, rating 0-100 (100=death), Table 4
# Experimental: The pre-emergence tests involve spraying a liquid formulation of the compound onto the soil in which the seeds of the plant species mentioned above has recently been sown. The soil used in the tests is a prepared horticultural loam. The formulations used in the tests are prepared from solutions of the test compounds in acetone containing 0.4% by weight of an alkylphenol/ethylene oxide condensate available under the trade mark TRITON X-155. […]
Task for the reader: assign each of the following compounds its reported TRZAWK rating (Selectivity).
No unit in the answer, please; the number alone is enough.

Lookup: # get_value(readout= TRZAWK rating (Selectivity), system= Triticum aestivum variety “Kanzler”) for Cc1cnc(-c2ccc(C(F)(F)F)cc2)nc1Oc1ccnc(Cl)c1
Found: 22

Lookup: # get_value(readout= TRZAWK rating (Selectivity), system= Triticum aestivum variety “Kanzler”) for Cc1cc(Oc2ccnc(Cl)c2)nc(-c2ccc(C(F)(F)F)cc2)n1
Found: 25

Lookup: # get_value(readout= TRZAWK rating (Selectivity), system= Triticum aestivum variety “Kanzler”) for COc1cnc(-c2ccc(C(F)(F)F)cc2)nc1Oc1ccnc(Cl)c1
Found: 18

Lookup: # get_value(readout= TRZAWK rating (Selectivity), system= Triticum aestivum variety “Kanzler”) for Cc1nc(-c2ccc(C(F)(F)F)cc2)nc(Oc2ccnc(Cl)c2)c1C
Found: 8

Lookup: # get_value(readout= TRZAWK rating (Selectivity), system= Triticum aestivum variety “Kanzler”) for CSc1cc(Oc2ccnc(Cl)c2)nc(-c2ccc(C(F)(F)F)cc2)n1
Found: 18

Lookup: # get_value(readout= TRZAWK rating (Selectivity), system= Triticum aestivum variety “Kanzler”) for FC(F)(F)c1ccc(-c2nccc(Oc3ccnc(Cl)c3)n2)cc1
Found: 5

----------
Task for the reader: assign each of the following compounds its reported ALOMY weed control rating.
# Test system: Alopecurus myosuroides
# Assay comment: Pre-emergence test, weed control
# Assay type: in vivo
# Experimental conditions: 0.015 kg/ha, 3 weeks after treatment, rating 0-100 (100=death), Table 1
No unit in the answer, please; the number alone is enough.

Lookup: Find the recorded ALOMY weed control rating belonging to Cc1cnc(-c2ccc(C(F)(F)F)cc2)nc1Oc1cccc(C(F)(F)F)c1 [REF-1] and report it.
Found: 65

Lookup: Find the recorded ALOMY weed control rating belonging to Cc1nc(-c2ccc(C(F)(F)F)cc2)nc(Oc2cccc(C(F)(F)F)c2)c1C [REF-2] and report it.
Found: 0

Lookup: Find the recorded ALOMY weed control rating belonging to FC(F)(F)c1ccc(-c2nccc(Oc3cccc(C(F)(F)F)c3)n2)cc1 [TTP] and report it.
Found: 15

Lookup: Find the recorded ALOMY weed control rating belonging to CCc1cc(Oc2cccc(C(F)(F)F)c2)nc(-c2ccc(C(F)(F)F)cc2)n1 [REF-3] and report it.
Found: 55

----------
# Tested on: Setaria viridis
# Assay comment: Pre-emergence test, weed control
# Format: in vivo
# Experimental conditions: 0.060 kg/ha, 3 weeks after treatment, rating 0-100 (100=death), Table 1
Task for the reader: assign each of the following compounds its reported SETVI weed control rating.
No unit in the answer, please; the number alone is enough.

Lookup: Find the recorded SETVI weed control rating belonging to FC(F)(F)c1ccc(-c2nccc(Oc3cccc(C(F)(F)F)c3)n2)cc1 [TTP] and report it.
Found: 100

Lookup: Find the recorded SETVI weed control rating belonging to Cc1cnc(-c2ccc(C(F)(F)F)cc2)nc1Oc1cccc(C(F)(F)F)c1 [REF-1] and report it.
Found: 100

Lookup: Find the recorded SETVI weed control rating belonging to Cc1nc(-c2ccc(C(F)(F)F)cc2)nc(Oc2cccc(C(F)(F)F)c2)c1C [REF-2] and report it.
Found: 97

Lookup: Find the recorded SETVI weed control rating belonging to CCc1cc(Oc2cccc(C(F)(F)F)c2)nc(-c2ccc(C(F)(F)F)cc2)n1 [REF-3] and report it.
Found: 100
